Target: T1, 14‐3‐3β (human, UniProt P31946 1-246)
T1 construct: 14-3-3 beta, human, full-length protein from the pProEx HTb-His-14-3-3 construct; Written as the protomer; tag removal is told only for the ∆C proteins; source: E. coli BL21(DE3), purified (Ni2+-NTA, dialysis)
T1 sequence (looked up): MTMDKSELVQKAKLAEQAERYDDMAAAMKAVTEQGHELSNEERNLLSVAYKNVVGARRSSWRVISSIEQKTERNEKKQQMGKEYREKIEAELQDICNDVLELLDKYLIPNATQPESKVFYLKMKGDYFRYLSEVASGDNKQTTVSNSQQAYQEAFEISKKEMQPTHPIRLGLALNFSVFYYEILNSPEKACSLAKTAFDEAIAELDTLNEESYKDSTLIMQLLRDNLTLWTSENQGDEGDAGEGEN
Assay: fluorescence polarisation; fluorescence anisotropy, direct titration: 14-3-3 protein titrated (1/2 dilution series) against 50 nM FAM-Ahx tracer peptide; 10 mM HEPES, 150 mM NaCl, 0.1% Tween 20, 0.1% BSA, pH 7.4; 384 well plates, triplicates; protein concentration as 14-3-3 monomer; 1:1 fit, biphasic curves fitted as two separate 1:1 events (Kd1, Kd2)
Conditions: both partners purified
[ ]: non-standard residue; d: D form. pS = N[C@@H](COP(=O)(O)O)C(=O)O; FAM = 5,6-carboxyfluorescein; Ahx = NCCCCCC(=O)O
Let's look at some binders and their measured Kd.
Use µM as the unit, but write only the number.

For orientation, consider the following solved cases.
| binder | measured.attribute | unit.name | recorded.result |
| --- | --- | --- | --- |
| {FAM-Ahx}-SRRRAI[pS]ETEEN-NH2 (hDM2 (human double minute 2 protein), human, residues 160-171; Tracer form used in the FA assays; also called hDM2_(160‐171) ^Ser166; source: synthetic peptide (Fmoc SPPS, HPLC purified)) [FAM‐Ahx‐hDM2_(160‐171) ^pSer166] | Kd | µM | 11.1 |
| {FAM-Ahx}-SKLTHSL[pS]TSDITAI-NH2 (hDMX (human double minute 4 protein, hDM4), human, residues 335-349; Tracer form used in the FA assays; source: synthetic peptide (Fmoc SPPS, HPLC purified)) [FAM‐Ahx‐hDMX_(335‐349) ^pSer342] | Kd | µM | 49.4 |
| {FAM-Ahx}-DCRRTI[pS]APVVRPK-NH2 (Tracer form used in the FA assays; source: synthetic peptide (Fmoc SPPS, HPLC purified)) [FAM‐Ahx‐hDMX_(361‐374) ^pSer367] | Kd | µM | 0.51 |

Then there is this binder:
IN: Bench note: what Kd did {FAM-Ahx}-QRKRHK[pS]DSISLS-NH2 (hDM2 (human double minute 2 protein), human, residues 180-192; Tracer form used in the FA assays; source: synthetic peptide (Fmoc SPPS, HPLC purified)) [FAM‐Ahx‐hDM2_(180‐192) ^pSer186] show?
OUT: 208

Where do these numbers come from? They come from paper PMC9541495.
